Procedure Text: reducers of endogenous Her2 protein level, primary screen, SKBR3 breast tumor cells, AlphaScreen, ATP viability (AID 461);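 further: percent of carrier control wells set as 100% viability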
Test Context: 18-24 h, measured here: SKBR3 viability, ATP luminescence, at 10 µM
Assay Endpoint: viability

{"Compound": "COc1ccc2c(CC(=O)Nc3nnc(C4CC4)s3)coc2c1", "Observed Result": "120%"}
{"Compound": "CN(C(=O)c1ccc2c(=O)n3c(nc2c1)CCCCC3)c1ccccc1", "Observed Result": "96.5%"}
{"Compound": "CCOC(=O)c1oc2cccc(OC(C)=O)c2c1C", "Observed Result": "106%"}
{"Compound": "Cc1ccc(C)c(-c2nc3cc(N)ccc3o2)c1", "Observed Result": "78.5%"}
{"Compound": "COC(=O)Nc1sc2c(c1C(=O)N1CCOCC1)CCC(C)C2 (stereo not given)", "Observed Result": "89.5%"}
{"Compound": "O=C(CN(Cc1ccco1)C(=O)CNS(=O)(=O)c1ccc(F)cc1)NCCc1ccccc1", "Observed Result": "78%"}

Request the reported viability associated with Cc1cc(=O)oc2cc(OCC(=O)OCc3nnc(-c4ccccc4)o3)ccc12
106%

Request the reported viability associated with Oc1ccccc1C1=Nc2nc3ccccc3n2C(c2ccccc2)C1 (stereo not given)
75.5%

Request the reported viability associated with O=C1CN(C(=O)COC(=O)c2ccccc2NC(=O)c2ccco2)c2ccccc2N1
94%

Request the reported viability associated with O=C(NC1CCCCC1)c1ccc(S(=O)(=O)N2CCCCC2)cc1
80.5%

Request the reported viability associated with Nn1c(SCC(=O)NC2CCCCC2)nnc1C1CC1
102%

Request the reported viability associated with CCOC(=O)C1=C(c2ccccc2)N2CCN=C2S1
94.5%

Request the reported viability associated with CCC1CCCCN1C(=O)Cn1c(C(=O)OC)cc2sc(Cl)cc21 (stereo not given)
76.5%

Request the reported viability associated with CN(C)c1ccc(-c2nn3c(-c4ccc(Cl)cc4Cl)nnc3s2)cc1
100%

Request the reported viability associated with CCC(C)Nc1nc2c(c(=O)n(C)c(=O)n2C)n1Cc1ccc(F)cc1 (stereo not given)
90.5%

* * *

Procedure Text: reducers of endogenous Her2 protein level, primary screen, SKBR3 breast tumor cells, AlphaScreen, ATP viability (AID 461);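 further: percent of carrier control wells set as 100% viability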
Test Context: 18-24 h, measured here: SKBR3 viability, ATP luminescence, at 10 µM
Assay Endpoint: viability
Reply with the number and its unit after it.

Worked examples follow.
{"Compound": "N#Cc1c(NC(NC(=O)c2ccco2)C(=O)c2ccccc2)sc2c1CCCC2 (stereo not drawn)", "Assay Endpoint": "viability", "Observed Result": "86.5%"}
{"Compound": "Cn1c(=O)c2ncn(CC(=O)NCCOc3ccc(C(C)(C)C)cc3)c2n(C)c1=O", "Assay Endpoint": "viability", "Observed Result": "96.5%"}
{"Compound": "NC(=O)NC(=O)CSc1cccc(C(F)(F)F)c1", "Assay Endpoint": "viability", "Observed Result": "138%"}
{"Compound": "O=S(=O)(c1ccc(OCC(O)CN2CCC(Cc3ccccc3)CC2)cc1)N1CCOCC1 (stereo not drawn)", "Assay Endpoint": "viability", "Observed Result": "81.5%"}

Request the reported viability associated with Cc1ccc(C)c(N2CCN(C(=O)c3ccc(CS(=O)(=O)c4ccccc4C)o3)CC2)c1
82%

Request the reported viability associated with CC(=O)c1c(C)[nH]c(C(=O)Nc2ccc3c(c2)OCCO3)c1C
102%

Request the reported viability associated with COc1cc(NC(=O)c2cc(CC(C)C)on2)c(OC)cc1Cl
92%

Request the reported viability associated with O=C(CCC(=O)OCCCC(F)(F)C(F)(F)F)NC1CCCCC1
123%

Request the reported viability associated with CCOC(=O)C1=C(C)NC(C)=C(C(=O)OCC)C1C(=O)OC1CCOC1=O (stereo not drawn)
104%

Request the reported viability associated with O=C1CC(c2ccc(F)c(Br)c2)C2=C(CCCC2=O)N1 (stereo not drawn)
102%
